Reported Activity values for the following compounds.
- Tested on: SH-SY5Y
- assay.notes: Neuroprotective activity in amyloid beta (25 to 35)-induced non-differentiated human SH-SY5Y cells assessed as reduction in protein aggregation at 100 uM incubated for 24 hrs by ThT fluorescence assay relative to control
- Type: functional
- Parameters: scale not given: the % may be the effect or the level left

{"compound.smiles": "NCC(=O)N1CCC[C@H]1C(=O)N[C@@H](CCC(=O)O)C(=O)O", "assay.readout": "Activity", "data.value": "12%"}
{"compound.smiles": "NC12CC3CC(CC(C3)C1)C2", "assay.readout": "Activity", "data.value": "17%"}

API: value(readout=Activity, system=SH-SY5Y) for record COC(=O)CC[C@H](NC(=O)[C@@H]1[C@H]2CC[C@H](C2)N1C(=O)CN)C(=O)NC12CC3CC(CC(C3)C1)C2.O=C(O)C(F)(F)F
20%
